Cited source: paper PMC8151276

# tested-on: HTR1A (Homo sapiens, UniProt P08908)
# Construct: purchased Promega (in-house HiBiT-GPCR construct library, NanoBRET)
# Sequence (P08908 whole entry): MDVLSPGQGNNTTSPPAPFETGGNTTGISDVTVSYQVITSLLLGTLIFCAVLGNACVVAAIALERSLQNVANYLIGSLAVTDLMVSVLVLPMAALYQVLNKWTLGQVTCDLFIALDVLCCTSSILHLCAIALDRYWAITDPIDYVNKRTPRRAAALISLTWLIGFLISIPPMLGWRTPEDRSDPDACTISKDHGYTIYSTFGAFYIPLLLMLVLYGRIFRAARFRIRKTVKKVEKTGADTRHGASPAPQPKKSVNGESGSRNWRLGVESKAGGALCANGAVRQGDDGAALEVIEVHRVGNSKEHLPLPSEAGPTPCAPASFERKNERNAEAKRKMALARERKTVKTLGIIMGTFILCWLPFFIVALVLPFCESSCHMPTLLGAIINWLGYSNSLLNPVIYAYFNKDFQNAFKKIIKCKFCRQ
# method-notes: NanoBRET screen HiBiT-HTR1A in HEK293
# Type: binding
# condition-set: HTR1A; tracer 0.1μM
quantity: NanoBRET Fold Response

>  <compound>
O=C(CCOCCOCCOCCOCCNC(=O)CCc1ccc2n1[B-](F)(F)[N+]1=C(c3ccc[nH]3)C=CC1=C2)NCCCN1CCN(C2=Nc3ccccc3Oc3ccc(Cl)cc32)CC1 [Loxapine-a-2-NB590]

>  <result>
1.15

$$$$
>  <compound>
CCCn1c(=O)c2[nH]c(-c3ccc(OCC(=O)NCCNC(=O)CCOCCNC(=O)c4ccc(CNC(=O)CCc5ccc6n5[B-](F)(F)[N+]5=C(c7ccc[nH]7)C=CC5=C6)cc4)cc3)nc2n(CCC)c1=O [XAC-3-NB590]

>  <result>
1.01

$$$$
>  <compound>
Cc1cc2c(s1)Nc1ccccc1N=C2N1CCN(CCCNC(=O)CCOCCOCCOCCOCCNC(=O)CCc2ccc3n2[B-](F)(F)[N+]2=C(c4ccc[nH]4)C=CC2=C3)CC1 [Olanzapine-a-2-NB590]

>  <result>
0.99

$$$$
>  <compound>
N#CN=C(NCCCOc1cccc(CN2CCCCC2)c1)NCCNC(=O)CCOCCOCCOCCOCCNC(=O)CCc1ccc2n1[B-](F)(F)[N+]1=C(c3ccc[nH]3)C=CC1=C2 [Aminopotentidine-2-NB590]

>  <result>
1.04

$$$$
>  <compound>
O=C(CCc1ccc2n1[B-](F)(F)[N+]1=C(c3ccc[nH]3)C=CC1=C2)NCc1ccc(C(=O)NCCOCCC(=O)N[C@@H]2CC[C@@]3(O)[C@H]4Cc5ccc(O)c6c5[C@@]3(CCN4CC3CC3)[C@H]2O6)cc1 [Naltrexone-3-NB590]

>  <result>
0.94

$$$$

Summary for this compound, COc1ccccc1N1CCN(CCCCN2C(=O)c3ccc(CNC(=O)CCOCCOCCOCCOCCNC(=O)CCc4ccc5n4[B-](F)(F)[N+]4=C(c6ccc[nH]6)C=CC4=C5)cc3C2=O)CC1 [NAN-190-2-NB590] : NanoBRET Fold Response is 2.15

Summary for this compound, CC(C)N(CC[C@H](c1ccccc1)c1cc(CCNC(=O)CCOCCOCCOCCOCCNC(=O)CCc2ccc3n2[B-](F)(F)[N+]2=C(c4ccc[nH]4)C=CC2=C3)ccc1O)C(C)C [Tolterodine-2-NB590] : NanoBRET Fold Response is 1.14

Summary for this compound, O=C(CCc1ccc2n1[B-](F)(F)[N+]1=C(c3ccc[nH]3)C=CC1=C2)NCCOCCOCCNC(=O)OCCOCCN1CCN(C2=Nc3ccccc3Sc3ccccc32)CC1 [Quetiapine-a-2-NB590] : NanoBRET Fold Response is 1.09

Summary for this compound, CC(C)N(CC[C@H](c1ccccc1)c1cc(CCNC(=O)c2ccc(CNC(=O)CCc3ccc4n3[B-](F)(F)[N+]3=C(c5ccc[nH]5)C=CC3=C4)cc2)ccc1O)C(C)C [Tolterodine-BZ-NB590] : NanoBRET Fold Response is 1.03

Summary for this compound, Cc1nc2n(c(=O)c1CCN1CCC(c3noc4cc(F)ccc34)CC1)CCCC2OC(=O)NCCOCCOCCOCCOCCNC(=O)CCc1ccc2n1[B-](F)(F)[N+]1=C(c3ccc[nH]3)C=CC1=C2 (stereo not shown) [Risperidone-2-NB590] : NanoBRET Fold Response is 1.24
